Target: SARS-CoV-2 full length Spike protein, wild type (SARS-CoV-2, UniProt P0DTC2 14-1208)
Below is a list of entries, each paired with its recorded median fluorescence, fold over isotype value.

binder: antibody 431 (antibody, V domains shown) VH: QVQLVESGGGVVQPGRSLRLSCAASGFTFSSYAMHWVRQAPGKGLEWLAVISYDGSNKYYADSVKGRFTISRDNSKNTLYLQMNSLRAEDTAVYYCARSFRGGYYYGMDVWGQGTTVTVSS VL: DIQLTQSPSFLSASVGDRVTITCRASQGISSYLAWYQQKPGKAPKLLIYAASTLQSGVPSRFSGSGSGTEFTLTISSLQPEDFATYYCQQLNSYPLFTFGPGTKVDIK
median fluorescence, fold over isotype / fold over isotype control: 715
//
binder: antibody 454 (antibody, V domains shown) VH: QVQLVQSGAEVKKPGASLKVSCKASGYIFTGYYMHWVRQAPGQGLEWMGWISPNSGGTKYAQKFQGRVTMTRDTSISTAYMELSRLRSDDSAVYYCAREPYYDILTGYYTPRRYLDYWGQGTLVTVSS VL: QSALTQPASVSGSPGQSITISCTGTSSDVGDYNYVSWYQQHPGKVPKLMIYDVSHRPSGVTNRFSGSKSGNTASLTISGLRAEDEADYYCSSYTSSSTYVFGTGTKVTVL
median fluorescence, fold over isotype / fold over isotype control: 1090
//
binder: antibody 423 (antibody, V domains shown) VH: EVQLVESGGGLIQPGGSLRISCAASGFTVRNNHMSWVRQAPGKGLEWVSVFYRGGTTYYADSVKGRFTISRDDSKNTVDLQMNSLRGEDTAVYYCARGLSVAASGYFDCWGQGTLVTVSS VL: DIQMTQSPSSVSASVGDTVTITCRANQGISSWLAWYQQVPGKAPELLIYATSTLQSGVPSRFSGSGSGTDFTLTISSLQPEDFATYYCQQANSFPFTFGPGTKVDIK
median fluorescence, fold over isotype / fold over isotype control: 1190
